Target System: rat P2X4 (Rattus norvegicus, UniProt P51577)
Sequence (P51577 1-388): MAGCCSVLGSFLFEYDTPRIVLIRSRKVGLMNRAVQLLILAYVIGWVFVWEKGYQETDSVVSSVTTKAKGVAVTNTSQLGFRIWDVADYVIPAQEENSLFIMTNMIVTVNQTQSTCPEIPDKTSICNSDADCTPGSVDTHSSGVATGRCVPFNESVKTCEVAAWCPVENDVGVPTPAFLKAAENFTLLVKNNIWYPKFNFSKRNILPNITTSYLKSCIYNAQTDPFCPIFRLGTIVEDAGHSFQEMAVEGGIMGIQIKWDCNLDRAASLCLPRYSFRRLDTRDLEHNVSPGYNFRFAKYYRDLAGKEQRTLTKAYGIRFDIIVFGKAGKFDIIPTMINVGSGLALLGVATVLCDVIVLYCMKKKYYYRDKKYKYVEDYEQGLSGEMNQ
Procedure Summary: FLIPR Method for Rat P2X4 1321N1 Astrocytoma Cells
Reported Conditions: 1321N1 stably expressing rat P2X4; agonist MgATP 5 μM (EC80)
Protocol: Compounds were tested on a 1321N1 cell line stably expressing rat P2X4. Cells were cultured on collagen-I-coated 384-well plates at a density of 10,000 cells/well and incubated overnight at 37° C., 5% CO2. P2X4 function was assessed by measuring intracellular calcium fluxes caused by Magnesium-ATP (MgATP) using the calcium-chelating dye Fluo8-AM (Molecular Devices) with the Fluorescent Imaging Plate Reader Tetra (FLIPR^Tetra; Molecular Devices CA). […]
# note: exactly 400 nM is not below, so it is Condition not met; use Condition met for IC50 strictly under it

Solved cases (8 shown):
CC(=O)N(c1ccc(F)c(F)c1)c1cc(NC(=O)Cc2ccc([N+](=O)[O-])cc2Cl)ccn1 [Example 69] :: Condition met
CC(=O)N(c1ccc(F)cc1)c1cc(NC(=O)Cc2c(F)cc(F)cc2Cl)ccn1 [Example 41] :: Condition met
CC(=O)N(c1cccc(Cl)c1)c1cc(NC(=O)Cc2ccc(F)cc2Cl)ccn1 [Example 132] :: Condition met
CC(=O)N(c1cc(NC(=O)Cc2cccc(F)c2Cl)ccn1)c1ccc(F)cc1F [Example 128] :: Condition not met
CC(=O)N(c1cc(F)cc(F)c1)c1cc(NC(=O)Cc2c(Cl)cccc2Cl)ccn1 [Example 89] :: Condition met
CC(=O)N(c1ccc(F)c(C#N)c1)c1cc(NC(=O)Cc2ccc(F)cc2Cl)ccn1 [Example 22] :: Condition met
CC(=O)N(c1cc(NC(=O)Cc2ccccc2Cl)ccn1)c1ccc(F)cc1F [Example 126] :: Condition met
CC(=O)N(c1cc(NC(=O)Cc2ccc(F)cc2Cl)ccn1)c1cccc(F)c1F [Example 123] :: Condition not met

Challenge: is_below(IC50, 400 nM) for COc1cccc(N(C(C)=O)c2cc(NC(=O)Cc3cccc(F)c3Cl)ccn2)c1 [Example 101] ?
Response given: Condition not met

Challenge: Continue with CC(=O)N(c1cccc(C(F)F)c1)c1cc(NC(=O)Cc2c(Cl)cccc2Cl)ccn1 [Example 5]
Response given: Condition not met

Challenge: Could you do the same for CC(=O)N(c1ccc(F)cc1)c1cc(NC(=O)Cc2ccc(F)cc2Cl)ccn1 [Example 37] , please?
Response given: Condition met

Challenge: Queued: CC(=O)N(c1cccc(C#N)c1)c1cc(NC(=O)Cc2ccccc2Cl)ccn1 [Example 13]
Response given: Condition not met

* * *

Target System: human P2X4 (Homo sapiens)
Procedure Summary: Human P2X4 HEK Cell FLIPR Assay
Reported Conditions: HEK293 stably expressing human P2X4; agonist Bz-ATP 3 μM (EC80); read-out: Human P2X4 HEK Cells (FLIPR Assay) avg IC50
Description: Compounds were tested on a HEK293 cell line stably expressing human P2X4. Cells were cultured on poly-D-lysine-coated 384-well plates at a density of 15,000 cells/well and incubated overnight at 37° C., 5% CO2. P2X4 function was assessed by measuring intracellular calcium fluxes caused by Benzoylbenzoyl-ATP (Bz-ATP) using the calcium-chelating dye Fluo8-AM (Molecular Devices) with the Fluorescent Imaging Plate Reader Tetra (FLIPR^Tetra; Molecular Devices CA). […]
Readout Name: pIC50
pIC50 field: float, defined as -log10 of concentration (mol/L).

CC(=O)N(c1ccc(F)c(F)c1)c1cc(NC(=O)Cc2ccccc2Cl)ccn1 :: 6.65
CC(=O)N(c1cc(F)cc(F)c1)c1cc(NC(=O)Cc2ccccc2Cl)cnn1 :: 6.36
CC(=O)N(c1cc(F)c(C)c(F)c1)c1cc(NC(=O)Cc2c(Cl)cccc2Cl)ccn1 :: 6.16
CC(=O)N(c1ccc(F)c(F)c1)c1cc(NC(=O)Cc2cccc(F)c2Cl)cnn1 :: 6.29
CC(=O)N(c1cc(F)cc(F)c1)c1cc(NC(=O)Cc2c(Cl)cccc2Cl)cnn1 :: 6.42

Challenge: Looking for the measured pIC50 of `CC(=O)N(c1cc(NC(=O)Cc2c(Cl)cccc2Cl)ccn1)c1cc(F)ccc1Cl` , can you help?
Response given: 6.59

Challenge: // repeat for `CC(=O)N(c1ccc(Cl)c(C#N)c1)c1cc(NC(=O)Cc2c(Cl)cccc2Cl)ccn1` and report
Response given: 6.27

Challenge: Same lookup for `CC(=O)N(c1cc(NC(=O)Cc2c(F)cccc2Cl)ccn1)c1ccc(F)cc1F` , please.
Response given: 6.59

Challenge: Likewise for `CC(=O)N(c1cc(NC(=O)Cc2ccc(F)cc2Cl)ccn1)c1ccc(F)cc1Cl` ?
Response given: 6.45

Challenge: Try the molecule `CC(=O)N(c1cc(C)cc(C#N)c1)c1cc(NC(=O)Cc2c(Cl)cccc2Cl)ccn1`
Response given: 6.25

Challenge: Let us now turn to `COc1ccc(N(C(C)=O)c2cc(NC(=O)Cc3ccccc3Cl)ccn2)cc1F`
Response given: 6.45

Challenge: Check `CC(=O)N(c1cc(NC(=O)Cc2cccc(F)c2Cl)ccn1)c1ccccc1C(F)F` too.
Response given: 6.17

Challenge: Repeat with `CC(=O)N(c1cc(NC(=O)Cc2c(F)cccc2Cl)ccn1)c1ccc(C)cc1C`
Response given: 6.28

Challenge: Moving on to the next molecule: `CC(=O)N(c1ccc(F)cc1)c1cc(NC(=O)Cc2c(Cl)cccc2Cl)cnn1`
Response given: 6.06

Challenge: Likewise for `COc1ccc(N(C(C)=O)c2cc(NC(=O)Cc3cccc(F)c3Cl)ccn2)cc1F` ?
Response given: 6.40

* * *

Target System: human P2X4 (Homo sapiens)
Construct: expressed in transfected cells
Sequence (Q99571 1-388): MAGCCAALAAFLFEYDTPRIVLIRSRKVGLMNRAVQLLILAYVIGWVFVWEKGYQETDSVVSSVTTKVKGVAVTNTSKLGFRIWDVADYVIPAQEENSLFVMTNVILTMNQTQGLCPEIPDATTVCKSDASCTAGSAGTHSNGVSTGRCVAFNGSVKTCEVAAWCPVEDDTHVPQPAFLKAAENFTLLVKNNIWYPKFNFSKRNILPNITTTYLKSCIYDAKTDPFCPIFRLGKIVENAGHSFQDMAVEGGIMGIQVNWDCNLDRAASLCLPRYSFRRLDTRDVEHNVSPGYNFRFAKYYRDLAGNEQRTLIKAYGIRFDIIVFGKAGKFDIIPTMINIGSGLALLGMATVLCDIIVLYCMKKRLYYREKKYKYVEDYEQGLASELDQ
Procedure Summary: Human P2X4 HEK Cell FLIPR Assay
Format: cell-based
Reported Conditions: HEK293 stably expressing human P2X4; agonist Bz-ATP 3 μM (EC80)
Readout Name: Human P2X4 HEK Cells (FLIPR Assay) avg Efficacy (%)
Express your answer in %, writing the number without its unit.

In the examples that follow, each entry is paired with its recorded Human P2X4 HEK Cells (FLIPR Assay) avg Efficacy.
CC(=O)N(c1cc(NC(=O)Cc2ccccc2Cl)ccn1)c1ccc(F)cc1Cl [Example 150] :: 102
CC(=O)N(c1cc(NC(=O)Cc2ccc(F)cc2Cl)ccn1)c1ccc(F)cc1Cl [Example 151] :: 104
CC(=O)N(c1ccc(S(C)(=O)=O)c(Cl)c1)c1cc(NC(=O)Cc2ccccc2Cl)ccn1 [Example 157] :: 97
CCCC(=O)N(c1ccc(F)cc1)c1cc(NC(=O)Cc2c(Cl)cccc2Cl)ccn1 [Example 144] :: 90
CC(=O)N(c1ccc(F)cc1)c1cc(NC(=O)Cc2c(F)cccc2Cl)cnn1 [Example 189] :: 93

Challenge: I would be grateful if you could share the reported Human P2X4 HEK Cells (FLIPR Assay) avg Efficacy for CC(=O)N(c1cccc(Cl)c1)c1cc(NC(=O)Cc2c(Cl)cccc2Cl)ccn1 [Example 134] .
Response given: 99

Challenge: Another: CC(=O)N(c1cc(NC(=O)Cc2cccc(F)c2Cl)ccn1)c1ccccc1Cl [Example 108]
Response given: 97

* * *

Target System: human P2X4 (Homo sapiens, UniProt Q99571)
Construct: expressed in transfected cells
Procedure Summary: Human P2X4 HEK Cell FLIPR Assay
Type: cell-based
Reported Conditions: HEK293 stably expressing human P2X4; agonist Bz-ATP 3 μM (EC80)
molecules and their reported Human P2X4 HEK Cells (FLIPR Assay) avg Efficacy
Just the number please, in %, no unit attached.

Solved entries (count: 7):
CC(=O)N(c1cccc(F)c1)c1cc(NC(=O)Cc2ccccc2Cl)cnn1 :: 94
CC(=O)N(c1cc(NC(=O)Cc2ccccc2Cl)ccn1)c1ccc(C)cc1C :: 104
CC(=O)N(c1ccc(F)c(F)c1)c1cc(NC(=O)Cc2ccc(Cl)cc2Cl)ccn1 :: 94
CC(=O)N(c1cc(NC(=O)Cc2c(Cl)cccc2Cl)ccn1)c1cccc(F)c1F :: 95
CC(=O)N(c1ccccc1)c1cc(NC(=O)Cc2c(Cl)cccc2Cl)cnn1 :: 101
CC(=O)N(c1ccc(Cl)c(F)c1)c1cc(NC(=O)Cc2ccccc2Cl)ccn1 :: 95
CC(=O)N(c1ccc(F)cc1)c1cc(NC(=O)Cc2ccc(F)cc2Cl)ccn1 :: 95

Next up:
Challenge: Request the reported Human P2X4 HEK Cells (FLIPR Assay) avg Efficacy associated with `CCCC(=O)N(c1ccc(F)cc1)c1cc(NC(=O)Cc2c(F)cccc2Cl)ccn1`
Response given: 86
